Biological target: Aβ42 (Homo sapiens, UniProt P05067)
Sequence (P05067 672-713): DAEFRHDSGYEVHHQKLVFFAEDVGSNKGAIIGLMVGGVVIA
Assay: Th-T (thioflavin-T) assay of Aβ42 aggregation
Assay type: biochemical
Details: compound at 20; reading M49 of time course
MEASURED_ATTRIBUTE: Th-T fluorescence, mean of three wells
# output: bare number, no unit

Prompt: API: value(readout= Th-T fluorescence, mean of three wells, system= Aβ42 (Homo sapiens, UniProt P05067), query= C=C1CC[C@@H]2[C@](C)(CC[C@H]3O[C@H](C=C(C)C)C[C@@]23C)[C@@H]1Cc1c(OC)oc(CO)c(C(=O)OC)c1=O )
Completion: 0.2153

---
Prompt: API: value(readout= Th-T fluorescence, mean of three wells, system= Aβ42 (Homo sapiens, UniProt P05067), query= C=C1CCC2C(C)(CCC=C(C)C)C(O)CCC2(C)C1Cc1c(OC)oc(CO)c(C)c1=O (centres unmarked) )
Completion: 2.1539

Prompt: Similarly, C=C1CCC2C(C)(CCC=C(C)C)C(O)CCC2(C)C1Cc1c(OC)oc(CO)c(C(=O)OC)c1=O (centres unmarked) ?
Completion: 0.6553

Prompt: Similarly, C=C1CC[C@@H]2[C@](C)(CC[C@H]3O[C@H](C=C(C)C)C[C@@]23C)[C@@H]1Cc1c(OC)oc(CO)c(C)c1=O ?
Completion: 3.413

Prompt: Similarly, C=C1CCC2C(C)(CCC=C(C)C)C(O)CCC2(C)C1Cc1c(OC)oc(C)c(C(=O)OC)c1=O (centres unmarked) ?
Completion: 2.157

* * *

Target: Aβ42 (Homo sapiens)
Assay: Th-T (thioflavin-T) assay of Aβ42 aggregation
Format: biochemical
Conditions: Supplementary Fig. 47 source data; measurement M41 of time course
MEASURED_ATTRIBUTE: Th-T fluorescence, mean of three wells

Consider the following illustrative entries.
Prompt: Recorded Th-T fluorescence, mean of three wells of C=C1CCC2C3(C)CC(C=C(C)C)OC3CCC2(C)C1Cc1c(OC)oc(C)c(C)c1=O (stereo not drawn) [Compound 23] , please.
Completion: 3.951

Prompt: Similarly, C=C1CCC2C(C)(CC(=O)C=C(C)C)C(O)CCC2(C)C1Cc1c(OC)oc(CO)c(C)c1=O (stereo not drawn) [Compound 19] ?
Completion: 3.495

Prompt: Similarly, C=C1CC[C@H]2[C@]3(C)C[C@H](C=C(C)C)O[C@H]3CC[C@]2(C)[C@@H]1Cc1c(O)c(C)c(C)oc1=O [Compound 6, subglutinol B] ?
Completion: 3.085

---
Prompt: Recorded Th-T fluorescence, mean of three wells of C=C1CCC2C(C)(CC(=O)C=C(C)C)C(O)CCC2(C)C1Cc1c(OC)oc(C)c(C)c1=O (stereo not drawn) [Compound 25] , please.
Completion: 3.723

Prompt: Similarly, C=C1CCC2C(C)(CC(=O)C=C(C)C)C(O)CCC2(C)C1Cc1c(O)c(C)c(C)oc1=O (stereo not drawn) [Compound 7] ?
Completion: 3.5472

Prompt: Similarly, C=C1CC[C@H]2[C@]3(C)C[C@@H](C=C(C)C)O[C@H]3CC[C@]2(C)[C@@H]1Cc1c(OC)oc(CO)c(C)c1=O [Compound 17] ?
Completion: 3.367

* * *

Molecular target: Aβ42 (Homo sapiens)
Test: Th-T (thioflavin-T) assay of Aβ42 aggregation
Type: biochemical
Details: time-course reading M110; Supplementary Fig. 47 source data
MEASURED_ATTRIBUTE: Th-T fluorescence, mean of three wells
# output: bare number, no unit

Consider the following illustrative entries.
Prompt: Recorded Th-T fluorescence, mean of three wells of C=C1CCC2C(C)(CCC=C(C)C)C(=O)CCC2(C)C1Cc1c(O)c(C)c(C)oc1=O (stereo not shown) [Compound 8] , please.
Completion: 2.217

Prompt: Similarly, C=C1CCC2C(C)(CCC=C(C)C)C(O)CCC2(C)C1Cc1c(OC)oc(CO)c(C(=O)OC)c1=O (stereo not shown) [Compound 13] ?
Completion: 1.044

Prompt: Similarly, C=C1CCC2C3(C)CC(C=C(C)C)OC3CCC2(C)C1Cc1c(OC)oc(C)c(C)c1=O (stereo not shown) [Compound 23] ?
Completion: 3.8573

---
Prompt: Recorded Th-T fluorescence, mean of three wells of C=C1CC[C@H]2[C@]3(C)C[C@H](C=C(C)C)O[C@H]3CC[C@]2(C)[C@@H]1Cc1c(OC)oc(C)c(C)c1=O [Compound 24] , please.
Completion: 3.951

Prompt: Similarly, C=C1CC[C@@H]2[C@](C)(CC[C@H]3O[C@H](C=C(C)C)C[C@@]23C)[C@@H]1Cc1c(OC)oc(CO)c(C)c1=O [Compound 20] ?
Completion: 4.248

Prompt: Similarly, CC(C)=CCC/C(C)=C/CC/C(C)=C/CC/C(C)=C/Cc1c(O)c(C)c(C)oc1=O [Compound 2] ?
Completion: 2.939

Prompt: Similarly, C=C1CC[C@H]2[C@]3(C)C[C@H](C=C(C)C)O[C@H]3CC[C@]2(C)[C@@H]1Cc1c(O)c(C)c(C)oc1=O [Compound 6, subglutinol B] ?
Completion: 3.049

* * *

Reported Th-T fluorescence of Aβ42 with compound, mean of three wells (Fig. 7a source data) by item:
Molecular target: Aβ42 (Homo sapiens, UniProt P05067)
Experiment: Th-T (thioflavin-T) assay of Aβ42 aggregation
Format: biochemical
Details: concentration 50, unit not given; time-course reading M138
# output: bare number, no unit

Consider the following illustrative entries.
Prompt: Recorded Th-T fluorescence of Aβ42 with compound, mean of three wells (Fig. 7a source data) of C=C1CCC2C(C)(CCC=C(C)C)C(O)CCC2(C)C1Cc1c(OC)oc(CO)c(C(=O)OC)c1=O (centres unmarked) [Compound 13] , please.
Completion: 0.4775

Prompt: Similarly, C=C1CCC2C(C)(CCC=C(C)C)C(O)CCC2(C)C1Cc1c(OC)oc(CO)c(C)c1=O (centres unmarked) [Compound 12] ?
Completion: 1.633

Prompt: Similarly, C=C1CC[C@@H]2[C@](C)(CC[C@H]3O[C@H](C=C(C)C)C[C@@]23C)[C@@H]1Cc1c(OC)oc(CO)c(C)c1=O [Compound 20] ?
Completion: 2.119

Prompt: Similarly, C=C1CC[C@@H]2[C@](C)(CC[C@H]3O[C@H](C=C(C)C)C[C@@]23C)[C@@H]1Cc1c(OC)oc(CO)c(C(=O)OC)c1=O [Compound 21] ?
Completion: 0.5022

---
Prompt: Recorded Th-T fluorescence of Aβ42 with compound, mean of three wells (Fig. 7a source data) of C=C1CCC2C(C)(CCC=C(C)C)C(O)CCC2(C)C1Cc1c(OC)oc(C)c(C(=O)OC)c1=O (centres unmarked) [Compound 14] , please.
Completion: 0.78

* * *

Target: Aβ42 (Homo sapiens, UniProt P05067)
Assay: Th-T (thioflavin-T) assay of Aβ42 aggregation
Format: biochemical
Conditions: head suffix _20 (concentration 20); reading M71
MEASURED_ATTRIBUTE: Th-T fluorescence of Aβ42 (sheet Fig. 7a), mean of three wells
# output: bare number, no unit

Consider the following illustrative entries.
Prompt: Recorded Th-T fluorescence of Aβ42 (sheet Fig. 7a), mean of three wells of C=C1CC[C@@H]2[C@](C)(CC[C@H]3O[C@H](C=C(C)C)C[C@@]23C)[C@@H]1Cc1c(OC)oc(CO)c(C(=O)OC)c1=O [Compound 21] , please.
Completion: 0.2831

Prompt: Similarly, C=C1CCC2C(C)(CCC=C(C)C)C(O)CCC2(C)C1Cc1c(OC)oc(CO)c(C(=O)OC)c1=O (centres unmarked) [Compound 13] ?
Completion: 1.058

Prompt: Similarly, C=C1CC[C@@H]2[C@](C)(CC[C@H]3O[C@H](C=C(C)C)C[C@@]23C)[C@@H]1Cc1c(OC)oc(CO)c(C)c1=O [Compound 20] ?
Completion: 3.403

---
Prompt: Recorded Th-T fluorescence of Aβ42 (sheet Fig. 7a), mean of three wells of C=C1CCC2C(C)(CCC=C(C)C)C(O)CCC2(C)C1Cc1c(OC)oc(CO)c(C)c1=O (centres unmarked) [Compound 12] , please.
Completion: 2.116

Prompt: Similarly, C=C1CCC2C(C)(CCC=C(C)C)C(O)CCC2(C)C1Cc1c(OC)oc(C)c(C(=O)OC)c1=O (centres unmarked) [Compound 14] ?
Completion: 1.97

* * *

Target: Aβ42 (Homo sapiens, UniProt P05067)
Experiment: Th-T (thioflavin-T) assay of Aβ42 aggregation
Assay type: biochemical
Conditions: concentration 10, unit not given; time-course reading M141
MEASURED_ATTRIBUTE: Th-T fluorescence of Aβ42 with compound, mean of three wells (Fig. 7a source data)
# output: bare number, no unit

Consider the following illustrative entries.
Prompt: Recorded Th-T fluorescence of Aβ42 with compound, mean of three wells (Fig. 7a source data) of C=C1CCC2C(C)(CCC=C(C)C)C(O)CCC2(C)C1Cc1c(OC)oc(C)c(C(=O)OC)c1=O (centres unmarked) [Compound 14] , please.
Completion: 2.927

Prompt: Similarly, C=C1CCC2C(C)(CCC=C(C)C)C(O)CCC2(C)C1Cc1c(OC)oc(CO)c(C(=O)OC)c1=O (centres unmarked) [Compound 13] ?
Completion: 1.531

Prompt: Similarly, C=C1CCC2C(C)(CCC=C(C)C)C(O)CCC2(C)C1Cc1c(OC)oc(CO)c(C)c1=O (centres unmarked) [Compound 12] ?
Completion: 2.2429

Prompt: Similarly, C=C1CC[C@@H]2[C@](C)(CC[C@H]3O[C@H](C=C(C)C)C[C@@]23C)[C@@H]1Cc1c(OC)oc(CO)c(C(=O)OC)c1=O [Compound 21] ?
Completion: 1.719

Could you now look at the following molecule, please?
Prompt: Recorded Th-T fluorescence of Aβ42 with compound, mean of three wells (Fig. 7a source data) of C=C1CC[C@@H]2[C@](C)(CC[C@H]3O[C@H](C=C(C)C)C[C@@]23C)[C@@H]1Cc1c(OC)oc(CO)c(C)c1=O [Compound 20] , please.
Completion: 3.147
